System: DC3F/ADR
Assay Notes: Binding affinity to p-glycoprotein in chinese hamster DC3F/ADR cells assessed as increase in basal activity at 5 uM after 30 mins by spectrophotometric method relative to control
Assay type: cell-based
Condition Set: Cricetulus griseus
Readout Label: Activity (%)

>>> observed_measurement("CN1C(=O)C(=CNc2ccccc2[N+](=O)[O-])C(=O)N(C)C1=O")
141
>>> observed_measurement("CN1C(=O)C(=CNc2ccccc2O)C(=O)N(C)C1=O")
95
>>> observed_measurement("CN1C(=O)C(=CNc2cc(C(=O)O)ccc2C(=O)O)C(=O)N(C)C1=O")
146
>>> observed_measurement("CN1C(=O)C(=CNc2ccccc2N)C(=O)N(C)C1=O")
166
>>> observed_measurement("COc1ccccc1NC=C1C(=O)N(C)C(=O)N(C)C1=O")
123
>>> observed_measurement("CN1C(=O)C(=C(Nc2ccccc2N)c2ccccc2)C(=O)N(C)C1=O")
135
